Taken from patent US11130769B2.

# System: H929 cells
# METHOD DESCRIPTION: Cell viability assay (H929 10 FBS)
# Assay type: cell-based
# MEASUREMENT CONTEXT: Homo sapiens, NCI-H929, 24 hours, read-out: H929_10FBS IC50
PROPERTY: IC50

[[record]]
compound = "CN(C)C1CN(C(=O)O[C@H]2/C=C/COC(C)(C)C(=O)NS(=O)(=O)c3ccc4c(c3)N(C[C@@H]3CC[C@H]32)C[C@@]2(CCCc3cc(Cl)ccc32)CO4)C1 [Example 52]"
property = "IC50"
obs_value = "< 500 nM"

[[record]]
compound = "CC1(C)OC/C=C/[C@H](OC(=O)N[C@@H]2CCOC2)[C@@H]2CC[C@H]2CN2C[C@@]3(CCOc4cc(Cl)ccc43)COc3ccc(cc32)S(=O)(=O)NC1=O [Example 302]"
property = "IC50"
obs_value = "< 500 nM"

[[record]]
compound = "CNCCNC(=O)O[C@H]1/C=C/COC(C)(C)C(=O)NS(=O)(=O)c2ccc3c(c2)N(C[C@@H]2CC[C@H]21)C[C@@]1(CCCc2cc(Cl)ccc21)CO3 [Example 157]"
property = "IC50"
obs_value = "< 500 nM"


Item CC1(C)OC/C=C/[C@H](OC(=O)NCCN2CCC(O)CC2)[C@@H]2CC[C@H]2CN2C[C@@]3(CCCc4cc(Cl)ccc43)COc3ccc(cc32)S(=O)(=O)NC1=O [Example 150] has what recorded IC50?
< 1000 nM

Item COC(=O)N1C/C=C/[C@@H](OC)[C@@H]2CC[C@H]2CN2C[C@@]3(CCCc4cc(Cl)ccc43)COc3ccc(cc32)S(=O)(=O)NC(=O)[C@H]1C [Example 134] has what recorded IC50?
> 1000 nM

Item CCO[C@H]1CCN(C(=O)O[C@H]2/C=C/COC(C)(C)C(=O)NS(=O)(=O)c3ccc4c(c3)N(C[C@@H]3CC[C@H]32)C[C@@]2(CCCc3cc(Cl)ccc32)CO4)C1 [Example 162] has what recorded IC50?
< 500 nM

Item CO[C@H]1/C=C/CCC(=O)NS(=O)(=O)c2ccc3c(c2)N(C[C@@H]2CC[C@H]21)C[C@@]1(CCCc2cc(Cl)ccc21)CO3 [Example 75] has what recorded IC50?
> 1000 nM

Item CN(C)C(=O)O[C@@H]1/C=C/CN(C)C(C)(C)C(=O)NS(=O)(=O)c2ccc3c(c2)N(C[C@@H]2CC[C@H]21)C[C@@]1(CCCc2cc(Cl)ccc21)CO3 [Example 200] has what recorded IC50?
< 500 nM

Item CO[C@H]1/C=C/CN2CCC[C@H]2C(=O)NS(=O)(=O)c2ccc3c(c2)N(C[C@@H]2CC[C@H]21)C[C@@]1(CCCc2cc(Cl)ccc21)CO3 [Example 100] has what recorded IC50?
> 1000 nM

Item O=C(Cc1ccccc1)NS(=O)(=O)c1ccc2c(c1)N(CC1CCC1)CC1(CCCc3cc(Cl)ccc31)CO2 (stereo not shown) [Example 5] has what recorded IC50?
> 1000 nM
